Molecular target: UBC9–SUMO2^B non-covalent complex (human, UniProt P63279;P61956)
Assay: fluorescence polarisation
MEASUREMENT TYPE: pKd
Keep it numeric: pKd is minus log10 of the concentration in mol/L.

// pKd value for Alexa488-labeled CysZNF451(2–56) (domain or fragment, Alexa488-maleimide on the single engineered N-terminal cysteine) CGDPGSEIIESVPPAGPEASESTTDENEDDIQFVSEGPLRPVLEYIDLVSSDDEEP : 5.70
